molecular target: T1, human CD3 on T-cell lines (CD3-expressing Jurkat cells; HUT78 cells) (human, UniProt P07766 23-207); test: flow cytometry, HUT78 cells
T1 construct: On cells it stands in the CD3/TCR complex
T1 sequence (P07766 23-207 limits assumed): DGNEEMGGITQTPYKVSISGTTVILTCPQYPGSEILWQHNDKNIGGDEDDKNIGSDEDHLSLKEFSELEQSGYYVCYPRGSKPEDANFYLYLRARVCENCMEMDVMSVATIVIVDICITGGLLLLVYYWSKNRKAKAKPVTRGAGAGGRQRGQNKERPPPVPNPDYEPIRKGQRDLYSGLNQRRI
MEASURED ATTRIBUTE: HUT78 Bmax

Guide cases for HUT78 Bmax, answers given:
[
  {
    "BINDER": "SRP 2037-B10 S107D/LC6 (antibody, human IgG1, kappa, V domains shown, human IgG1, kappa; also called 2037-B10 IgG S107D Lc6) VH: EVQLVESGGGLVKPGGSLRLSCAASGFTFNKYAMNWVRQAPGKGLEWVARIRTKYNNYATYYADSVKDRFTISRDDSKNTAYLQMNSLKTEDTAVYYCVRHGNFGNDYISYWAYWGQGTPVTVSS VL: DIQMTQSPSSLSASVGDRVTITCGSSTGAVTSGYYPNWLQQKPGQAPRGLIGGTKFLAPGVPSRFSGSLSGGKATLTISSLQPEDFATYYCALWYSNRWVFGGGTKVEIKR",
    "HUT78 Bmax": 1550
  },
  {
    "BINDER": "SRP 2037-B10 F104D/LC5 (antibody, human IgG1, kappa, V domains shown, human IgG1, kappa) VH: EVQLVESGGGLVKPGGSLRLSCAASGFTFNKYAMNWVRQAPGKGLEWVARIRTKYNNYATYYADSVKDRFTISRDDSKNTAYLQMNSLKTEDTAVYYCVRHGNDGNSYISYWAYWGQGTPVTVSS VL: DTQVTQSPSLSASVGDRVTITCGSSTGAVTSGYYPNWLQQKPGQAPRGLIGGTKFLAPGVPSRFSGSGSGTDFTLTISSLQPEDFATYYCALWYSNRWVFGGGTKVEIKR",
    "HUT78 Bmax": 523
  }
]

Lookup result for SRP 2037-B10 F104D/R97D (antibody, human IgG1, lambda, V domains shown, human IgG1, lambda) VH: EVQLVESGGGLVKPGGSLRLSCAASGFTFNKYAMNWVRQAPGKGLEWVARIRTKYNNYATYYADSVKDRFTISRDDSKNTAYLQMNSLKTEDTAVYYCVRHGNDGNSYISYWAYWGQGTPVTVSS VL: QTVVTQEPSLTVSPGGTVTLTCGSSTGAVTSGYYPNWLQQKPGQAPRGLIGGTKFLAPGTPARFSGSLLGGKAALTLSGVQPEDEAEYYCALWYSNDWVFGGGTQLTVTG ; measured HUT78 Bmax: 2710
